procedure.details: NCI Yeast Anticancer Drug Screen. Data for the mlh1 rad18 strain (AID 175)
study.conditions: S. cerevisiae mlh1 rad18 strain growth inhibition; at 50.0 µM (retest, dose inferred, filed as 5.0); active compounds read high
The panel holds about 79,000 compounds, 15% with a hit somewhere; the sample as a whole holds those more often.
test.readout: growth inhibition (%)
Please state the figure in %; there is no need to write the unit.

Recorded growth inhibition, per entry:
INSERT INTO assay_data (compound, endpoint_result) VALUES
  ('CCCCN(CC)CC(C(C)=O)c1c(O)c2ccccc2oc1=O (centres undefined)', 34),
  ('CC(C)CCC[C@@H](C)[C@H]1CC[C@H]2[C@@H]3CC[C@H]4C[C@H](NCCCl)CC[C@]4(C)[C@H]3CC[C@]12C', 27),
  ('CCC[CH2][Sn]([N]=C=S)([N]=C=S)[N]=C=S.O=P(c1ccccc1)(c1ccccc1)c1ccccc1.O=P(c1ccccc1)(c1ccccc1)c1ccccc1', 44),
  ('O=[N+]([O-])c1ccc(O)c(Cl)c1', 53),
  ('O=[As]c1ccc([N+](=O)[O-])cc1 (centres undefined)', 99),
  ('O=C(N/N=C/c1cc(Cl)cc(Cl)c1[O-])c1ccccc1O.O=C(N/N=C/c1cc(Cl)cc(Cl)c1[O-])c1ccccc1O.[Mn+2]', 87),
  ('Sc1ccc(Cl)cc1', 64),
  ('CN(C)CCN(C)P12(Oc3ccccc3O1)Oc1c(Cl)c(Cl)c(Cl)c(Cl)c1O2', 16);

Now, please, on to the next compound.
Query block: Tell me the measured growth inhibition of C=Cc1cc(OC)c2c(c1)c(=O)oc1c2cc(OC)c2c(O)ccc(C3OC(C)C(O)C(C)(O)C3O)c21 (centres undefined) , please.
Result block: 96
